- TEST_TARGET: SARS-CoV-2 Spike protein receptor-binding domain (RBD) (SARS-CoV-2, UniProt P0DTC2 319-527)
- ASSAY_REMARKS: BLI (Octet), IgG1 captured on anti-human Fc sensors, RBD in solution; note: test concentration or dose not given here
MEASUREMENT_LABEL: kobs
Answer format: number, then unit.

[Q] Please list kobs recorded for the binder AB-5 full-length IgG1 (antibody, V domains shown) VH: EVQLEESGTVLARPGASVKMSCKASGYTFTSYWMHWIKQRPGQGLEWIGAIYPGNGDTNYNQKFKDKAKLTAVKSTSSAYMELSSLTNEDSAVYFCTREGIPQLLNTLDVWGQGTSVTVSS VL: DILMTQSPSSLSASLGERVSLTCRASQEISGYLSWLQEKPDGTIKRLIYAASTLDSGVPKRFSGSRSGSDYSLTISSLESEDFADYYCQQYLSYPWTFGGGTKLEIK
[A] 0.0117 s⁻¹
